experimentalTarget: Sentrin-specific protease 8 (Homo sapiens) (UniProt Q96LD8)
Sequence (Q96LD8 whole entry, looked up): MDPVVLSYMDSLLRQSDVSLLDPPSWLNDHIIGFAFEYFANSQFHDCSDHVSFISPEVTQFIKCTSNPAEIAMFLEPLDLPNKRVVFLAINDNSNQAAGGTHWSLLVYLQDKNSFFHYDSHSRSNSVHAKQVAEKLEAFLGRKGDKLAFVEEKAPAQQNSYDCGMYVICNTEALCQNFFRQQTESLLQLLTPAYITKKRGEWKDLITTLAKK
testDescription: blockers of human SENP8 peptidase activity – biochemical, luminescence, primary screen (AID 2540)
conditionNotes: purified SENP8, Z-RLRGG-aminoluciferin cleavage, at 10 µM, active compounds read high
About 4,100 (1.2%) of roughly 330,000 compounds were called active. The full list was thinned out, with actives kept by preference.
I would appreciate it if you labelled entries t when inhibition is 10% or higher, otherwise f.

-- ask Is reported inhibition greater than or equal to 10% here: O=C(Nc1sc2c(c1-c1nc3ccccc3[nH]1)CCCC2)C1CC1
-- reply f

-- ask # check: inhibition of COc1ccc(Br)cc1C(=O)NC(=S)Nc1cc(-c2nc3ccccc3[nH]2)ccc1C is greater than or equal to 10%
-- reply f

-- ask Textbook exercise: given the entry CCc1ccc(NC(=O)C(=O)NNC(=O)c2cccs2)cc1 , state whether its inhibition is greater than or equal to 10%.
-- reply t

-- ask Evaluate CC(=O)c1cnc(SCC(=O)O)nc1C : inhibition at minimum 10%?
-- reply f

-- ask Check if inhibition >= 10% (inclusive). Item: CCOC(=O)C1CCCN(C(=O)COc2ccc(N(C)S(=O)(=O)c3ccc(C)cc3)cc2)C1 (stereo not given)
-- reply f

-- ask Kindly determine if inhibition recorded for COC(C/C=C/C(=O)[C@@H](C)OCc1ccccc1)OC is above or exactly 10%.
-- reply f

-- ask Is the recorded value of inhibition equal to or greater than 10% for this compound? COc1ccc(C2=Nc3cc(C)ccc3OC2)cc1
-- reply t

-- ask Record Clc1ccccc1SCc1nc2ccccc2[nH]1 ; criterion: inhibition no lower than 10%. Met?
-- reply t

-- ask Say whether COc1ccc(C2=NOC(COC(=O)c3ccc4ccccc4n3)C2)cc1 (stereo not given) shows inhibition of 10% or more.
-- reply f

-- ask Please indicate if the recorded inhibition for c1ccc2[nH]c(-c3nc4ccccc4[nH]3)nc2c1 meets or exceeds 10%.
-- reply t
